System: MDA-MB-468
method notes: Antiproliferative activity against human MDA-MB-468 cells assessed as inhibition of cell proliferation by MTT assay
Assay type: functional
measurement parameters: read-out: LD50 (the source's name)
parameter: CC50 (µM)
Quick note: give the figure in µM, leave out the unit.

Request the reported CC50 associated with COc1cc([C@H]2c3c(ccc4ccccc34)O[C@@H]2C(=O)c2ccccc2)cc(OC)c1OC 88

Request the reported CC50 associated with CCC[C@H]1c2c(ccc3ccccc23)O[C@@H]1C(=O)c1ccccc1 69

Request the reported CC50 associated with Cc1ccc([C@H]2c3c(ccc4ccccc34)O[C@@H]2C(=O)c2ccccc2)cc1 63

Request the reported CC50 associated with O=C(c1ccccc1)[C@@H]1Cc2c(ccc3cc(Br)ccc23)O1 32
